test system: A549, human lung cancer; experiment: preliminary anti-tumor screening in vitro, SRB method; assay type: cell-based; conditions: 10 μM, read-out: inhibition rates (%) A549
Decision: inhibition at 10 µM >= 50% yields Y, all other cases yield N.

In [3]: df
Out[3]:
                                    compound      experimental_system  label
 0  CC(C)C[C@H](NC(=O)N[C@@H](Cc1ccccc1)C(=O)Nc1cnccn1)B1OC2C[C@H]3C[C@H](C3(C)C)[C@@]2(C)O1 (some centres unmarked)  A549, human lung cancer      N
 1  CC(C)C[C@H](NC(=O)[C@H](Cc1ccccc1)NC(=O)NCc1ccccc1)B(O)O  A549, human lung cancer      N
 2  COc1ccc(OC)c(CNC(=O)N[C@@H](Cc2ccccc2)C(=O)N[C@@H](CC(C)C)B(O)O)c1  A549, human lung cancer      Y
 3  CC(C)C[C@H](NC(=O)N[C@H](Cc1ccccc1)C(=O)Nc1cnccn1)B(O)O  A549, human lung cancer      N
 4  CC(C)C[C@H](NC(=O)N[C@@H](Cc1ccccc1)C(=O)Nc1cnccn1)B(O)O  A549, human lung cancer      N
 5  COc1ccc(OC)c(CNC(=O)N[C@@H](Cc2ccccc2)C(=O)N[C@@H](CC(C)C)B2OC3CC4CC(C4(C)C)[C@]3(C)O2)c1 (some centres unmarked)  A549, human lung cancer      Y
 6  CC(C)C[C@H](NC(=O)CNC(=O)Nc1cccc(OCc2ccccc2)c1)B(O)O  A549, human lung cancer      N
 7  CC(C)C[C@H](NC(=O)[C@H](Cc1ccccc1)NC(=O)c1cnccn1)B(O)O [positive control, bortezomib, reference compound]  A549, human lung cancer      Y
 8  CC(C)C[C@H](NC(=O)N[C@@H](Cc1ccccc1)C(=O)Nc1cccc(OCc2ccccc2)c1)B(O)O  A549, human lung cancer      N
 9  CC(C)C[C@H](NC(=O)[C@H](Cc1ccccc1)NC(=O)N[C@@H](Cc1ccccc1)C(=O)Nc1cnccn1)B(O)O  A549, human lung cancer      Y
10  CC(C)C[C@H](NC(=O)[C@H](Cc1ccccc1)NC(=O)Nc1cccc(OCc2ccccc2)c1)B(O)O  A549, human lung cancer      Y
11  COc1ccc(CNC(=O)N[C@@H](Cc2ccccc2)C(=O)N[C@@H](CC(C)C)B(O)O)cc1  A549, human lung cancer      N

----------
test system: Hela; experiment: anti-tumor activity in vitro (IC50), MTT; format: cell-based; conditions: Homo sapiens, 72 h
Property: IC50 (nM)

>>> df
                                   compound  property  result_unit  observed_measurement
0  CC(C)C[C@H](NC(=O)[C@H](Cc1ccccc1)NC(=O)NCc1cccc(Cl)c1Cl)B(O)O      IC50           nM                   117
1  CC(C)C[C@H](NC(=O)[C@H](Cc1ccccc1)NC(=O)N1CCc2ccccc2C1)B(O)O      IC50           nM                   532
2  CC(C)C[C@H](NC(=O)[C@H](Cc1ccccc1)NC(=O)NCc1ccc(F)c(F)c1)B(O)O      IC50           nM                   255
3  CC(C)C[C@H](NC(=O)[C@H](Cc1ccccc1)NC(=O)c1cnccn1)B(O)O [positive control, bortezomib, reference compound]      IC50           nM                   224

Each recorded value in this set is attributed to patent US10494384B2.
